# System: Escherichia coli (10536 strain)
# PROTOCOL: 15 second contact suspension kill assay (Example 1 protocol, also Example 3)
# Assay type: cell-based
# SETUP_CONDITIONS: Escherichia coli, 15 s; component alone; lowest tested concentration giving zero bacterial survival after 15 s; upper boundary; read-out: Minimum biocidal concentration (MBC)
Recorded MBC values for a group of compounds are listed next.

{"COMPOUND": "CCC(C)c1ccc(O)cc1 (stereo not drawn)", "MBC": "800 µg/mL"}
{"COMPOUND": "Oc1ccccc1C1CCCC1", "MBC": "1000 µg/mL"}
{"COMPOUND": "Oc1ccc(C2CCCC2)cc1", "MBC": "800 µg/mL"}
{"COMPOUND": "Oc1ccc(Cc2ccccc2)cc1", "MBC": "500 µg/mL"}
{"COMPOUND": "Cc1ccc(C(C)C)c(O)c1 [Thymol, thymol, reference compound]", "MBC": "500 µg/mL"}
{"COMPOUND": "CCCCc1ccc(O)cc1", "MBC": "250 µg/mL"}
{"COMPOUND": "CCCCCc1ccc(O)cc1", "MBC": "250 µg/mL"}
{"COMPOUND": "CC(C)(C)c1ccccc1O", "MBC": "500 µg/mL"}
{"COMPOUND": "Oc1ccccc1Cc1ccccc1", "MBC": "500 µg/mL"}
{"COMPOUND": "CCCc1ccc(O)cc1", "MBC": "750 µg/mL"}
{"COMPOUND": "CCC(C)c1ccccc1O (stereo not drawn)", "MBC": "500 µg/mL"}
{"COMPOUND": "CC(C)(C)c1cccc(O)c1", "MBC": "800 µg/mL"}

* * *

# System: Escherichia coli (10536 strain)
# PROTOCOL: 15 second contact suspension kill assay (Example 1 protocol, also Example 3)
# Format: cell-based
# SETUP_CONDITIONS: 15 s contact; active concentrations (% w/v) as defined per example; 0 = complete kill; mean of triplicate
Rule for this label: MET means NMBS, mean bacterial survival is less than 4 log CFU/ml; NOT MET means NMBS, mean bacterial survival is at least 4 log CFU/ml.

{"MOLECULE": "Oc1ccc(Cc2ccccc2)cc1 [1:45, 4-benzylphenol]", "TESTED_SYSTEM": "Escherichia coli (10536 strain)", "LABEL": "MET"}
{"MOLECULE": "CC1=CCC(C(C)(C)O)CC1 (stereo not drawn) [1:4, alpha-terpineol]", "TESTED_SYSTEM": "Escherichia coli (10536 strain)", "LABEL": "MET"}
{"MOLECULE": "Oc1ccccc1C1CCCC1 [1:33, 2-cyclopentylphenol]", "TESTED_SYSTEM": "Escherichia coli (10536 strain)", "LABEL": "NOT MET"}
{"MOLECULE": "Oc1ccc(Cc2ccccc2)cc1 [1:44, 4-benzylphenol]", "TESTED_SYSTEM": "Escherichia coli (10536 strain)", "LABEL": "MET"}
{"MOLECULE": "CC1=CCC(C(C)(C)O)CC1 (stereo not drawn) [1:6, alpha-terpineol]", "TESTED_SYSTEM": "Escherichia coli (10536 strain)", "LABEL": "NOT MET"}
{"MOLECULE": "C/C=C/c1ccccc1O [1:38, (E)-2-(prop-1-enyl)phenol]", "TESTED_SYSTEM": "Escherichia coli (10536 strain)", "LABEL": "MET"}
{"MOLECULE": "C/C=C/c1ccccc1O [1:39, (E)-2-(prop-1-enyl)phenol]", "TESTED_SYSTEM": "Escherichia coli (10536 strain)", "LABEL": "NOT MET"}
{"MOLECULE": "CC(C)(C)c1cccc(O)c1 [1:21, 3-tert-butylphenol]", "TESTED_SYSTEM": "Escherichia coli (10536 strain)", "LABEL": "MET"}
{"MOLECULE": "CCCCc1ccc(O)cc1 [1:12, 4-n-butylphenol]", "TESTED_SYSTEM": "Escherichia coli (10536 strain)", "LABEL": "MET"}
{"MOLECULE": "Oc1ccccc1Cc1ccccc1 [1:42, 2-benzylphenol]", "TESTED_SYSTEM": "Escherichia coli (10536 strain)", "LABEL": "NOT MET"}
{"MOLECULE": "CCC(C)c1ccc(O)cc1 (centres unmarked) [1:29, 4-sec-butylphenol]", "TESTED_SYSTEM": "Escherichia coli (10536 strain)", "LABEL": "NOT MET"}
